Tested on: Fibroblast
Assay Protocol: Incucyte cell viability with human fibroblast; further: unitless GR value; below 1 slowed growth and below 0 cell loss
Format: toxicity, cell-based
Experimental Conditions: 6 h, 10 µM, compound concentration 10 uM, replicate number 2, timepoint 6 hours
Property Name: Growth Rate
Could you keep your reply to the number by itself?

- Compound: "CNC(=O)c1nn(C)c2c1C(C)(C)Cc1cnc(Nc3ccc(N4CCN(C)CC4)cc3)nc1-2 [MILCICLIB]"
  Reported Measurement: -0.21
- Compound: "OCCCNc1cc(-c2ccnc(Nc3cccc(Cl)c3)n2)ccn1"
  Reported Measurement: 0.11
- Compound: "CSc1nc(NC2CCCC2)c([N+](=O)[O-])c(NC2CCCC2)n1 [GS-39783]"
  Reported Measurement: 0.69
- Compound: "CC(=O)O[C@H]1C(=O)[C@@]2(C)[C@H]([C@H](OC(=O)c3ccccc3)[C@]3(O)C[C@H](OC(=O)[C@H](O)[C@@H](NC(=O)c4ccccc4)c4ccccc4)C(C)=C1C3(C)C)[C@]1(OC(C)=O)CO[C@@H]1C[C@@H]2O [PACLITAXEL]"
  Reported Measurement: -0.73
- Compound: "Cc1ccc(OCC(O)C(C)NC(C)C)c2c1CCC2.Cl (stereo not given)"
  Reported Measurement: 0.19

Now consider a different compound.
query: Please look up its Growth Rate: CC(C)Cc1ccc([C@@H](C)C(=O)NS(C)(=O)=O)cc1 [REPARIXIN]
result: -0.08
